Each entry below lists one item and its recorded Relative cell viability (%), SU-DHL-8 value.
- Test system: Human B Lymphocyte cell line, SU-DHL-8
- testDetails: Relative cell viability CCK-8, SU-DHL-8
- Format: cell-based
- runParameters: human, 48 h, 50 µM
The response must be a number in % with no trailing unit.

// below: answered compounds
> print(dat)
                                   compound                                     tgt  recordednumber
1  Nc1ncccc1C(=O)NCCCCCCCCCCCCN1CCNCC1 [Compound 14]  Human B Lymphocyte cell line, SU-DHL-8            0.32
2  CN(C)C1CCCCN(CCCCCCCCCCCCNC(=O)c2cccnc2N)C1 (centres unmarked) [Compound 45]  Human B Lymphocyte cell line, SU-DHL-8           −1.31

What value of Relative cell viability (%), SU-DHL-8 on Human B Lymphocyte cell line, SU-DHL-8 does Nc1ncccc1C(=O)NCCCCCCCCCCF [Compound 68, 2-Amino-N-(10-fluoro-decyl)-nicotinamide] have?
−5.64

Note, next up: Nc1ncccc1C(=O)NCCCCCCCCCCCCN1CC2CCCC2C1 (centres unmarked) [Compound 46]
−0.92

Note, next up: Nc1ncccc1C(=O)NCCCCCCCCCCCCN1CCNCC1 [Compound 5]
3.67

Note, next up: COc1ccc(CN2CCN(CCCCCCCCCCCCNC(=O)c3cccnc3N)CC2)cc1 [Compound 28]
−1.55

Note, next up: Nc1ncccc1C(=O)NCCCCCCCCCCCCN1CCc2ccccc21 [Compound 89]
−0.86

Note, next up: Nc1ncccc1C(=O)NCCCCCCCCCCCF [Compound 70]
−0.57

###

- Tested on: Human B Lymphocyte cell line, SU-DHL-8
- testDetails: Relative cell viability CCK-8, SU-DHL-8
- Format: cell-based
- runParameters: Homo sapiens, SU-DHL-8, 48 h, read-out: Relative cell viability (%), SU-DHL-8, 30 μM; 48 hours; untreated (DMSO) = 100%
endpointName: viability at 30 µM
State the value, then name its unit.

Bench note: what viability at 30 µM did Nc1ncccc1C(=O)NCCCCCCCCCCCCN1CCSC1 [Compound 31] show?
1%

Note, next up: Nc1ncccc1C(=O)NCCCCCCCCCCCCN1CCc2ccccc21 [Compound 89]
0.48%

Note, next up: Nc1nc(NC(=O)CCCCCCCCCCCCN2CCC(O)CC2)nc2nc[nH]c12 [Compound 9]
3.36%

Note, next up: COC(=O)CN1CCN(CCCCCCCCCCCCC(=O)Nc2nc(N)c3[nH]cnc3n2)CC1 [Compound 7]
3.48%

Note, next up: CN1CCN(CCCCCCCCCCCCNC(=O)c2ccc3[nH]cnc3c2)CC1 [Compound 91]
1.84%

###

- System: Human B Lymphocyte cell line, SU-DHL-8
- testDetails: Relative cell viability CCK-8, SU-DHL-8
- Assay type: cell-based
- runParameters: Homo sapiens, SU-DHL-8, 48 h, read-out: Relative cell viability (%), SU-DHL-8, 10 μM; 48 hours; untreated (DMSO) = 100%
Response field label: string, one of MET (viability at 10 µM strictly below 6%) or NOT MET.

Solved entries:
> print(dat)
                                   compound    class
1  CC(C)CN1CCN(CCCCCCCCCCCCC(=O)Nc2nc(N)c3[nH]cnc3n2)CC1  NOT MET
2  Nc1ncccc1C(=O)CCCCCCCCCCCCCN1CC2CCC(C1)O2  NOT MET
3  Nc1ncccc1C(=O)NCCCCCCCCCCCCN1CCN(Cc2ccc(F)cc2)CC1      MET
4  COc1ccc(CN2CCN(CCCCCCCCCCCCNC(=O)c3cccnc3N)CC2)cc1      MET
5  CN1CCN(C(=O)OC(C)(C)C)CC1CCCCCCCCNC(=O)c1cccnc1N (centres unmarked)      MET
6  Nc1ncccc1C(=O)NCCCCCCCCCCCCn1ncc2ccc(Cl)nc21  NOT MET

Given the entry Nc1ncccc1C(=O)NCCCCCCCCCCF [Compound 68, 2-Amino-N-(10-fluoro-decyl)-nicotinamide] , would its reported viability at 10 µM be below 6%?
NOT MET

Note, next up: Nc1nc(NC(=O)CCCCCCCCCCCCN2CCNCC2)nc2nc[nH]c12
NOT MET

Note, next up: Nc1ncccc1C(=O)NCCCCCCCCCCCCN1CCSCC1
MET

Note, next up: Nc1ncccc1C(=O)NCCCCCCCCCCCF
MET

Note, next up: CN1CCN(C2CCN(CCCCCCCCCCCCNC(=O)c3cccnc3N)CC2)CC1
NOT MET

###

- System: Human Head and Neck cancer, Fadu
- testDetails: Relative cell viability CCK-8, Fadu
- Type: cell-based
- runParameters: Fadu cells, 1 μM, relative to untreated cells
endpointName: Relative cell viability (%)
State the value, then name its unit.

> print(dat)
                                 smilesdata  result
1  Nc1ncccc1C(=O)NCCCCCCCCCCCCN1CCN(CCO)CC1  24.97%
2  CC1(C)CN(CCCCCCCCCCCCC(=O)Nc2nc(N)c3[nH]cnc3n2)CCO1   2.08%
3  Cc1ccc(OC2CCN(CCCCCCCCCCCCNC(=O)c3cccnc3N)CC2)cc1  24.93%

Bench note: what Relative cell viability (%) did Cl.Nc1ncccc1C(=O)NCCCCCCCCCCCCN1CC[C@H](N)C1 show?
20.78%

###

Each entry below lists one item and its recorded viability at 30 µM value.
- System: Human Head and Neck cancer, Fadu
- testDetails: Relative cell viability CCK-8, Fadu
- Format: cell-based
- runParameters: Homo sapiens, FaDu, Fadu cells, 30 μM, relative to untreated cells
The response must be a number in % with no trailing unit.

// below: answered compounds
> print(dat)
                                   compound  recordednumber
1  CN(C)C1CCCCN(CCCCCCCCCCCCNC(=O)c2cccnc2N)C1 (stereo not shown)              60
2  Nc1nc(NC(=O)CCCCCCCCCCCCN2CCN(CCO)CC2)nc2nc[nH]c12            41.5
3  Nc1ncccc1C(=O)NCCCCCCCCCCCCN1CCC(c2ccc([N+](=O)[O-])cc2)CC1            2.94

// switching to the query compound
Bench note: what viability at 30 µM did Nc1ncccc1C(=O)NCCCCCCCCCCCCN1CCC(O)CC1 show?
7.34

###

- Test system: Human B Lymphocyte cell line, SU-DHL-8
- testDetails: Relative cell viability CCK-8, SU-DHL-8
- Type: cell-based
- runParameters: Homo sapiens, SU-DHL-8, 48 h, read-out: Relative cell viability (%), SU-DHL-8, 10 μM; 48 hours; untreated (DMSO) = 100%
Response field label: string, one of true (viability at 10 µM strictly below 4%) or false.

Given the entry Nc1ncccc1C(=O)NCCCCCCCCCCCCN1CCc2ccccc21 , would its reported viability at 10 µM be below 4%?
true

Note, next up: O=C(NCCCCCCCCCCCCF)c1cccnc1S
false

Note, next up: CC1C2CCCN2CCN1CCCCCCCCCCCCNC(=O)c1cccnc1N (stereo not drawn)
true

Note, next up: Cc1nnc(C)n1CCCCCCCCCCCCNC(=O)c1cccnc1N
false

Note, next up: Nc1ncccc1C(=O)NCCCCCCCCCCCCN1CCCC1
false

Note, next up: COC(=O)CN1CCN(CCCCCCCCCCCCC(=O)Nc2nc(N)c3[nH]cnc3n2)CC1
false

Note, next up: Nc1ncccc1C(=O)NCCCCCCCCCCN1CCOCC1
false

Note, next up: Nc1ncccc1C(=O)NCCCCCCCCCCCCN1CCNCC1
false

Note, next up: Nc1nc(NC(=O)CCCCCCCCCCCCN2CCC(O)CC2)nc2nc[nH]c12
false

###

- Tested on: Human B Lymphocyte cell line, SU-DHL-8
- testDetails: Relative cell viability CCK-8, SU-DHL-8
- Type: cell-based
- runParameters: Homo sapiens, SU-DHL-8, 48 h, read-out: Relative cell viability (%), SU-DHL-8, 50 μM; 48 hours; untreated (DMSO) = 100%
- Experimental: Human-derived B lymphoma cell line SU-DHL-8 (Cat. #CRL-2961) purchased from ATCC was cultured in RPMI-1640 medium containing 10% FBS, 100 U/mL penicillin, and 100 μg/mL streptomycin. The cell culture medium was then harvested, centrifuged at 1,300 rpm for 5 minutes, and the supernatant was removed. The cells were resuspended in the same medium and dispensed into a 96-well plate (Costar 96-well cell culture plate, Corning) at 90 μL per well, resulting in the conditions specified in Table 5. […]
endpointName: viability at 50 µM (%)
The response must be a number in % with no trailing unit.

> print(dat)
                                   compound        endpointname  recordednumber
1    Nc1ncccc1C(=O)NCCCCCCCCCCCCN1CCC(O)CC1  viability at 50 µM            8.33
2       Nc1ncccc1C(=O)NCCCCCCCCCCCCN1CCSCC1  viability at 50 µM            4.45
3  Nc1ncccc1C(=O)NCCCCCCCCF [Compound 61, 2-Amino-N-(8-fluoro-octyl)-nicotinamide]  viability at 50 µM              21
4  Nc1ncccc1C(=O)NCCCCCCCCCCCCn1nnc2cccnc21  viability at 50 µM            2.23
5              O=C(NCCCCCCCCCCCCF)c1cccnc1S  viability at 50 µM            19.3
6  CN1CCN(CCCCCCCCCCCCNC(=O)c2ccc3[nH]cnc3c2)CC1  viability at 50 µM            1.59

What value of viability at 50 µM on Human B Lymphocyte cell line, SU-DHL-8 does Nc1ncccc1C(=O)NCCCCCCCCCCCCN1CCCCC1 have?
3.44

Note, next up: Nc1nc(NC(=O)CCCCCCCCCCCCN2CCNCC2)nc2nc[nH]c12
4.49
